Reference source for all entries: paper PMC5365239

assay: Cu^I-ligand dissociation constant, competition assay with bicinchoninic acid; type: binding; conditions: read-out: Dissociation constant (KD) of Cu^I-ligand; BCA competition assay
ASSAY_ENDPOINT: pKd
# reply with the number alone; pKd is -log10 of concentration in mol/L

Qu. Form field: reported pKd of N[C@@H](CCC(=O)N[C@@H](CS)C(=O)NCC(=O)O)C(=O)O [GSH, reduced glutathione]
Ans. 10.51
